Test system: modified version of the GPR119 receptor (94% identity to human receptor)
Assay: cAMP production assay (LANCE cAMP kit, TR-FRET) in HEK-293 cells
Format: cell-based
Settings: HEK-293 cells stably expressing modified GPR119; test compounds 0.2 nM to 10 μM, one-hour incubation
Procedure: The assay utilized HEK-293 cells that stably express a modified version of the GPR119 receptor (94% identity to human receptor), under the control of a CMV promoter containing a tet-on element for tetracycline-inducible expression. GPR119 agonist-induced cyclic AMP (cAMP) production was measured in this cell line using the LANCE cAMP kit (Perkin Elmer, Waltham, Mass.). […] Cellular cAMP levels were then determined by interpolation of raw signal data using a cAMP standard curve. […]
Counter-ions that a name gives are not always drawn.
Below, each of the molecules is paired with its reported cAMP production in HEK-293 cells value.
metric name: cAMP production in HEK-293 cells (nmol)

INSERT INTO results (molecule, target_system, metric_name, unit_info, observed) VALUES
  ('CS(=O)(=O)c1ccc(O[C@H]2CCN(C3CCN(c4nc(Br)ns4)CC3)C2=O)c(F)c1', 'modified version of the GPR119 receptor (94% identity to human receptor)', 'cAMP production in HEK-293 cells', 'nmol', 10.6),
  ('CC(C)c1nsc(N2CCC(N3CCC(Oc4ccc(S(=O)(=O)C5CC5)cc4F)C3=O)CC2)n1 (stereo not shown) [Example 46, trifluoroacetate]', 'modified version of the GPR119 receptor (94% identity to human receptor)', 'cAMP production in HEK-293 cells', 'nmol', 20.7),
  ('Cc1cc(O[C@H]2CCN(C3CCN(c4nc(C(C)C)ns4)CC3)C2=O)c(F)cc1Br', 'modified version of the GPR119 receptor (94% identity to human receptor)', 'cAMP production in HEK-293 cells', 'nmol', 22.0),
  ('CS(=O)(=O)c1ccc(N[C@H]2CCN(C3CCN(c4nc(C(F)(F)F)ns4)CC3)C2=O)c(F)c1', 'modified version of the GPR119 receptor (94% identity to human receptor)', 'cAMP production in HEK-293 cells', 'nmol', 8.5),
  ('CS(=O)(=O)c1cc(F)c(O[C@H]2CCCN(C3CCN(c4nc(C(F)(F)F)ns4)CC3)C2=O)cc1F', 'modified version of the GPR119 receptor (94% identity to human receptor)', 'cAMP production in HEK-293 cells', 'nmol', 9.0),
  ('CS(=O)(=O)c1ccc(N[C@H]2CCCN(C3CCN(c4nc(C(F)(F)F)ns4)CC3)C2=O)c(F)c1', 'modified version of the GPR119 receptor (94% identity to human receptor)', 'cAMP production in HEK-293 cells', 'nmol', 13.6),
  ('CS(=O)(=O)c1cc(F)c(O[C@H]2CCN(C3CCN(c4nnc(C(F)(F)F)s4)CC3)C2=O)cc1F', 'modified version of the GPR119 receptor (94% identity to human receptor)', 'cAMP production in HEK-293 cells', 'nmol', 14.2);
